Catalogue of pIC50 values
Target: Gastrin/cholecystokinin type B receptor (Mus musculus, UniProt P56481)
Sequence (P56481 whole entry): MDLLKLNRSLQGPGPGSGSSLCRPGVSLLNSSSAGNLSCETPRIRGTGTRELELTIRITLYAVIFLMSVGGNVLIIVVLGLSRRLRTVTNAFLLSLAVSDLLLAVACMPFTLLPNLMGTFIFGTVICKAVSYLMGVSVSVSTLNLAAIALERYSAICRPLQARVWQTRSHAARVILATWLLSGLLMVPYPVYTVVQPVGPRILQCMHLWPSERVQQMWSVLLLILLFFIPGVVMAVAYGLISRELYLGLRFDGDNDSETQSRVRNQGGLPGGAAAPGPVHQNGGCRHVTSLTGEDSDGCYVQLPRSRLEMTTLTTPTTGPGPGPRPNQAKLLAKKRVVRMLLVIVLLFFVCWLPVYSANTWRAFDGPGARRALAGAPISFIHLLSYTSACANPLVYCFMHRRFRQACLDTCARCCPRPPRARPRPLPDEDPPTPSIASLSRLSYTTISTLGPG
pIC50: −log10 of the molar value.

molecule: CC(C)C[C@H](NC(=O)[C@H](Cc1c[nH]c2ccccc12)NC(=O)OC(C)(C)C)C(=O)N1C[C@H](Cc2ccccc2)NC(=O)[C@H]1CC(=O)O (mixture of isomers)
system tested: Gastrin/cholecystokinin type B receptor (Mus musculus, UniProt P56481)
pIC50: 5.13

molecule: CC(C)C[C@H](NC(=O)[C@H](Cc1c[nH]c2ccccc12)NC(=O)OC(C)(C)C)C(=O)N1C[C@H](Cc2ccccc2)NC(=O)[C@@H]1CC(=O)O
system tested: Gastrin/cholecystokinin type B receptor (Mus musculus, UniProt P56481)
pIC50: 4.21

molecule: CC(C)C[C@H](NC(=O)[C@H](Cc1c[nH]c2ccccc12)NC(=O)OC(C)(C)C)C(=O)N1C[C@@H](Cc2ccccc2)NC(=O)[C@@H]1CC(=O)O
system tested: Gastrin/cholecystokinin type B receptor (Mus musculus, UniProt P56481)
pIC50: 4.77
